- Tested on: EFO21 (ovary)
- Protocol text: Proliferation Assay
- Format: cell-based
- Experimental conditions: Homo sapiens, EFO-21, 72 h, read-out: IC50 inhibition of cell growth
pIC50: −log10 of the molar value.
Metric: pIC50

INSERT INTO assay_data (molecule, measured_value) VALUES
  ('COc1cccc(C(=O)Nc2nc3cc4c(cc3[nH]2)OC(F)(F)O4)c1 [Compound 56]', '≥ 6.00');

* * *

- Assayed target: Casein kinase 1 delta (CSKN1D) (Homo sapiens)
- Protocol text: Casein kinase assay, CK1 delta
- Experimental conditions: recombinant CSKN1D 5 nM, ATP 10 μM
We begin with a simple list: items and their reported IC50.
Metric: IC50

INSERT INTO assay_data (compound_structure, metric, measured_value) VALUES
  ('O=C(Nc1nc2cc3c(cc2[nH]1)OC(F)(F)O3)c1ccc(S(=O)(=O)N2CCOCC2)cc1', 'IC50', '< 0.2 µM'),
  ('O=C(Nc1nc2cc3c(cc2[nH]1)OC(F)(F)O3)c1csc(-c2ccc(C(F)(F)F)cc2)n1', 'IC50', '> 1 µM'),
  ('CN(C)c1cc(C(=O)Nc2nc3cc4c(cc3[nH]2)OC(F)(F)O4)ccn1', 'IC50', '< 0.2 µM'),
  ('O=C(Nc1nc2cc3c(cc2[nH]1)OC(F)(F)O3)c1csc(Br)n1', 'IC50', '0.2 to 1 µM'),
  ('O=C(Nc1nc2cc3c(cc2[nH]1)OC(F)(F)O3)c1cnco1', 'IC50', '0.2 to 1 µM'),
  ('COc1ccc(C(=O)Nc2nc(C(=O)Nc3nc4cc5c(cc4[nH]3)OC(F)(F)O5)cs2)cc1', 'IC50', '< 0.2 µM'),
  ('O=C(Nc1nc2cc3c(cc2[nH]1)OC(F)(F)O3)c1cccc(-c2cc[nH]n2)c1', 'IC50', '< 0.2 µM'),
  ('COc1cc(C(=O)Nc2nc3cc4c(cc3[nH]2)OC(F)(F)O4)ccc1N', 'IC50', '< 0.2 µM');

* * *

We begin with a simple list: items and their reported IC50.
- Assayed target: Casein kinase 1 epsilon (CSKN1E) (Homo sapiens)
- Sequence (P49674 whole entry): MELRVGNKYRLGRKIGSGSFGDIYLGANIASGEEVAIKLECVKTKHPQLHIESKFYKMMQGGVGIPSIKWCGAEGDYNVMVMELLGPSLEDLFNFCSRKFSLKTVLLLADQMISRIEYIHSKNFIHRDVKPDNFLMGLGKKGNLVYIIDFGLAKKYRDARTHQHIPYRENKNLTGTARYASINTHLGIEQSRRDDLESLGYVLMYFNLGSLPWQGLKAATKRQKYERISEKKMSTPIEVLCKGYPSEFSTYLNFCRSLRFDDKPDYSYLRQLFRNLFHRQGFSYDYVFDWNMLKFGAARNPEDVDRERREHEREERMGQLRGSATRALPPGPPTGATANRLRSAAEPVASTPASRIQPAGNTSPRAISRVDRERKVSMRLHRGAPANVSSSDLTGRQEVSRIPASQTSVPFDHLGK
- Protocol text: Casein kinase assay, CK1 epsilon
- Type: biochemical
- Experimental conditions: recombinant CSKN1E 30 nM, ATP 10 μM
- Protocol: The recombinant protein Casein kinase 1 delta (CSKN1D) was added to the substrate solution in a concentration of 5 nM and gently mixed. Dilution series in of compounds of the present invention in DMSO were added to the reaction mixture, followed after 20 min by addition of a mixture of ATP and ^33P-ATP (specific activity 0.01 μCi/μl final) to a final concentration of 10 μM. Reactions were carried out at 25° C. for 120 min, followed by spotting the reactions onto P81 ion exchange filter paper. […]
Metric: IC50

INSERT INTO assay_data (compound, assayed_target, metric, measured_value) VALUES
  ('O=C(Nc1nc2cc3c(cc2[nH]1)OC(F)(F)O3)c1c(F)cccc1F [Compound 54]', 'Casein kinase 1 epsilon (CSKN1E) (Homo sapiens)', 'IC50', '> 1 µM'),
  ('Cc1nnnn1-c1cccc(C(=O)Nc2nc3cc4c(cc3[nH]2)OC(F)(F)O4)c1 [Compound 148]', 'Casein kinase 1 epsilon (CSKN1E) (Homo sapiens)', 'IC50', '< 0.2 µM'),
  ('CC(=O)Nc1n[nH]c(C(=O)Nc2nc3cc4c(cc3[nH]2)OC(F)(F)O4)n1 [Compound 95]', 'Casein kinase 1 epsilon (CSKN1E) (Homo sapiens)', 'IC50', '> 1 µM'),
  ('Cc1occc1C(=O)Nc1nc2cc3c(cc2[nH]1)OC(F)(F)O3 [Compound 33]', 'Casein kinase 1 epsilon (CSKN1E) (Homo sapiens)', 'IC50', '0.2 to 1 µM');

* * *

We begin with a simple list: items and their reported pIC50.
- Assayed target: Casein kinase 1 delta (CSKN1D) (Homo sapiens, UniProt P48730)
- Sequence (P48730 whole entry): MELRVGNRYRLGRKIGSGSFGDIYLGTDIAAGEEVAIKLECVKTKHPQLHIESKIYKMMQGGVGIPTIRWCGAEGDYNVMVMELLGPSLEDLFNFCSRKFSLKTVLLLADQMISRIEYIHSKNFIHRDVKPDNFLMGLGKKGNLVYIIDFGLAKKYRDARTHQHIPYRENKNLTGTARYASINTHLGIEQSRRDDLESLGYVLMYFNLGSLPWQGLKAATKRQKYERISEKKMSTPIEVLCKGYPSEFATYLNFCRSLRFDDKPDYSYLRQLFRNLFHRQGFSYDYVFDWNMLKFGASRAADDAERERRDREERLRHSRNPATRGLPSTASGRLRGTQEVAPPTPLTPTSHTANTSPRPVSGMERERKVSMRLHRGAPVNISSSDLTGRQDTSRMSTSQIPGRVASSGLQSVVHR
- Protocol text: Casein kinase assay, CK1 delta
- Experimental conditions: recombinant CSKN1D 5 nM, ATP 10 μM
pIC50: −log10 of the molar value.
Metric: pIC50

INSERT INTO results (compound, measured_value) VALUES
  ('O=C(Nc1nc2cc3c(cc2[nH]1)OC(F)(F)O3)c1cccc(-c2nnn[nH]2)c1', '> 6.70'),
  ('COc1cccc(CC(=O)Nc2nc3cc4c(cc3[nH]2)OC(F)(F)O4)c1', '> 6.70'),
  ('O=C(Nc1nc2cc3c(cc2[nH]1)OC(F)(F)O3)c1cc([N+](=O)[O-])c[nH]1', '> 6.70'),
  ('COc1cc(OC)cc(C(=O)Nc2nc3cc4c(cc3[nH]2)OC(F)(F)O4)c1', '> 6.70'),
  ('NS(=O)(=O)c1cccc(C(=O)Nc2nc3cc4c(cc3[nH]2)OC(F)(F)O4)c1', '> 6.70'),
  ('Cc1cc(C(F)(F)F)nc(Nc2nc(C(=O)Nc3nc4cc5c(cc4[nH]3)OC(F)(F)O5)cs2)n1', '< 6.00'),
  ('O=C(Nc1nc2cc3c(cc2[nH]1)OC(F)(F)O3)c1csc(-c2ccsc2)n1', '> 6.70'),
  ('O=C(Nc1nc2cc3c(cc2[nH]1)OC(F)(F)O3)c1cccc(N2CCCC2)c1', '> 6.70'),
  ('NC(=O)c1ccc(C(=O)Nc2nc3cc4c(cc3[nH]2)OC(F)(F)O4)c(F)c1', '> 6.70'),
  ('N#Cc1ccc(C(=O)Nc2nc3cc4c(cc3[nH]2)OC(F)(F)O4)c(F)c1', '< 6.00'),
  ('Cc1nnsc1C(=O)Nc1nc2cc3c(cc2[nH]1)OC(F)(F)O3', '< 6.00'),
  ('Cc1nc(-c2cccc(C(=O)Nc3nc4cc5c(cc4[nH]3)OC(F)(F)O5)c2)no1', '> 6.70'),
  ('O=C(Nc1nc2cc3c(cc2[nH]1)OC(F)(F)O3)c1coc(N2CCOCC2)n1', '6.00 to 6.70'),
  ('Cc1cc(C(=O)Nc2nc3cc4c(cc3[nH]2)OC(F)(F)O4)no1', '< 6.00'),
  ('COC(=O)c1cccc(C(=O)Nc2nc3cc4c(cc3[nH]2)OC(F)(F)O4)c1', '> 6.70'),
  ('Nc1nccnc1C(=O)Nc1nc2cc3c(cc2[nH]1)OC(F)(F)O3', '< 6.00'),
  ('CS(=O)(=O)c1ccc(C(=O)Nc2nc3cc4c(cc3[nH]2)OC(F)(F)O4)s1', '6.00 to 6.70'),
  ('CN(C)c1cccc(C(=O)Nc2nc3cc4c(cc3[nH]2)OC(F)(F)O4)c1', '> 6.70'),
  ('O=C(Nc1nc2cc3c(cc2[nH]1)OC(F)(F)O3)c1cc(-c2ccco2)on1', '6.00 to 6.70'),
  ('O=C(Cc1cccc(Cl)c1)Nc1nc2cc3c(cc2[nH]1)OC(F)(F)O3', '> 6.70'),
  ('O=C(Nc1nc2cc3c(cc2[nH]1)OC(F)(F)O3)c1sccc1Cl', '< 6.00'),
  ('Cc1nn(-c2ccccc2)c(C)c1C(=O)Nc1nc2cc3c(cc2[nH]1)OC(F)(F)O3', '< 6.00'),
  ('O=C(Nc1nc2cc3c(cc2[nH]1)OC(F)(F)O3)c1cncc(-c2ccco2)c1', '> 6.70'),
  ('O=C(Nc1nc2cc3c(cc2[nH]1)OC(F)(F)O3)c1csc(-c2ccc3c(c2)OCCO3)n1', '> 6.70'),
  ('COc1ccccc1C(=O)Nc1nc(C(=O)Nc2nc3cc4c(cc3[nH]2)OC(F)(F)O4)co1', '6.00 to 6.70'),
  ('O=C(Nc1nc2cc3c(cc2[nH]1)OC(F)(F)O3)c1c[nH]cn1', '6.00 to 6.70'),
  ('O=C(Nc1nc2cc3c(cc2[nH]1)OC(F)(F)O3)c1ccncc1', '> 6.70'),
  ('O=C(Nc1nc(C(=O)Nc2nc3cc4c(cc3[nH]2)OC(F)(F)O4)ns1)c1cccc(Cl)c1', '> 6.70'),
  ('Nc1c[nH]c(C(=O)Nc2nc3cc4c(cc3[nH]2)OC(F)(F)O4)c1 [Compound 15B]', '> 6.70'),
  ('O=C(Nc1nc2cc3c(cc2[nH]1)OC(F)(F)O3)c1cccc(-c2nccs2)c1', '> 6.70'),
  ('COc1ccc(C(=O)Nc2nc3cc4c(cc3[nH]2)OC(F)(F)O4)cc1', '6.00 to 6.70'),
  ('O=C(Nc1n[nH]c(C(=O)Nc2nc3cc4c(cc3[nH]2)OC(F)(F)O4)n1)c1ccc(Cl)cc1', '6.00 to 6.70'),
  ('O=C(Nc1nc2cc3c(cc2[nH]1)OC(F)(F)O3)c1ccoc1', '6.00 to 6.70');
